tgt: LXR α LBD protein (Homo sapiens (Human), UniProt Q13133)
Sequence (Q13133 209-447): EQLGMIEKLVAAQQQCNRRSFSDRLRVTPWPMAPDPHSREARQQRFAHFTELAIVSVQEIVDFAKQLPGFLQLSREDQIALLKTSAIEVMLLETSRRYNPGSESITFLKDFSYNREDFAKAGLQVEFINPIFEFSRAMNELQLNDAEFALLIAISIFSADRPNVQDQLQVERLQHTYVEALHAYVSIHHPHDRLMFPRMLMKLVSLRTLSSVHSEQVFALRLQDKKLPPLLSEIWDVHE
test description: Human LXRα coactivator recruitment FRET assay, agonist mode
Format: biochemical
assay conditions: agonist mode
endpoint label: EC50 (µM)
Quick reminder: number only, in µM, skip the unit.

Recorded EC50 for CS(=O)(=O)c1cccc(N2CCN(Cc3ccc(C(F)(F)F)c(Cl)c3)C(C3CCCCC3)C2)c1 (stereo not shown) , please? 0.157

Recorded EC50 for `CC1(C)CCC(CN2CCN(c3cccc(S(C)(=O)=O)c3)C[C@@H]2c2ccccc2)CC1` , please? 0.301

Recorded EC50 for CC(C)COC(=O)N1CCN(c2cccc(S(C)(=O)=O)c2)CC1c1ccccc1 (stereo not shown) , please? 2.5

Origin of measurements: patent US10144715B2
